# Tested on: SKBR3 (PI3Kα-Wild Type) cell line
# test-method-notes: HTRF phospho-AKT(S473) cell assay in SKBR3 cells
# Format: cell-based, human
# experimental-setup: Homo sapiens, SK-BR-3; HTRF phospho-AKT(S473), SKBR3 (PI3Kα-Wild Type) cells, 2 hours compound incubation, PDGF-BB stimulated
I'd appreciate it if you could supply IC50 values for the items below.

Field: example entries. Status: answers known.
                                   molecule                       study_system  recorded_value
0  Cc1cc([C@@H](C)Nc2ccc(Cl)nc2C(=O)NS(C)(=O)=O)c2nc(N3CCC[C@H](c4cnc(C)nc4)C3)n(C)c(=O)c2c1 (relative stereo)  SKBR3 (PI3Kα-Wild Type) cell line          ≥ 5 µM
1  Cc1cc([C@@H](C)Nc2ccc(Cl)nc2C(=O)NS(C)(=O)=O)c2nc(N3C[C@H]4C[C@@H]3CN4c3ncc(Cl)cn3)n(C)c(=O)c2c1  SKBR3 (PI3Kα-Wild Type) cell line          ≥ 5 µM
2  Cc1cc([C@@H](C)Nc2ccc(Cl)nc2C(=O)NS(C)(=O)=O)c2nc(N3CCC(C4=NN(C)C(=O)C4(F)F)CC3)n(C)c(=O)c2c1  SKBR3 (PI3Kα-Wild Type) cell line          ≥ 5 µM
3  Cc1cc([C@@H](C)Nc2ccc(Cl)nc2C(=O)NS(C)(=O)=O)c2nc(-c3ccc4cn[nH]c4c3)n(C)c(=O)c2c1  SKBR3 (PI3Kα-Wild Type) cell line       1 to 5 µM
4  Cc1cc([C@@H](C)Nc2ccc(Cl)nc2C(=O)NS(C)(=O)=O)c2nc(N3CCC(c4c(F)cnn4C4CC4)CC3)n(C)c(=O)c2c1  SKBR3 (PI3Kα-Wild Type) cell line       1 to 5 µM

molecule C[C@@H](Nc1ccc(Cl)nc1C(=O)NS(C)(=O)=O)c1cc(F)cc2c(=O)n(C)c(N3CC[C@@H](Oc4cnn(C)c4)C3)nc12 , IC50 observed: 1 to 5 µM

* * *

I'd appreciate it if you could supply IC50 values for the items below.
# Tested on: SKBR3 (PI3Kα-Wild Type) cell line
# test-method-notes: HTRF phospho-AKT(S473) cell assay in SKBR3 cells
# Assay type: cell-based, human
# experimental-setup: Homo sapiens, SK-BR-3; SKBR3 (PI3Kα-Wild Type) cells, HTRF phospho-AKT(S473), 2 hours compound incubation, PDGF-BB stimulated

Field: example entries. Status: answers known.
>>> print(df.to_string())
                                   compound                       study_system  recorded_value
0  Cc1cc([C@@H](C)Nc2ccc(Cl)nc2C(=O)NS(C)(=O)=O)c2nc(N3Cc4cn(-c5ccnn5C)nc4C3)n(C)c(=O)c2c1 [Compound 277]  SKBR3 (PI3Kα-Wild Type) cell line       1 to 5 µM
1  Cc1cc([C@@H](C)Nc2ccc(Cl)nc2C(=O)NS(C)(=O)=O)c2nc(N3CCC(c4ccc(N(C)C)nc4)CC3)n(C)c(=O)c2c1 [Compound 242]  SKBR3 (PI3Kα-Wild Type) cell line       1 to 5 µM

Items follow; give IC50 for each.
1. Cc1cc([C@@H](C)Nc2ccc(Cl)nc2C(=O)NS(C)(=O)=O)c2nc(-c3ccc(O[C@@H]4CCNCC4(F)F)nc3)n(C)c(=O)c2c1 [Compound 333]
2. Cc1cc([C@@H](C)Nc2ccc(Cl)nc2C(=O)NS(C)(=O)=O)c2nc(N3CC[C@H](Oc4ccnnc4)C3)n(C)c(=O)c2c1 [Compound 353]
3. CCC(=O)NS(=O)(=O)c1nc(Cl)ccc1N[C@H](C)c1cc(C)cc2c(=O)n(C)c(N3Cc4ccc(F)cc4C3)nc12 [Compound 81]
4. CC(=O)Nc1ccc(C2CCN(c3nc4c([C@@H](C)Nc5ccc(Cl)nc5C(=O)NS(C)(=O)=O)cc(C)cc4c(=O)n3C)CC2)cn1 [Compound 254]

# output
1: 1 to 5 µM; 2: 1 to 5 µM; 3: ≥ 5 µM; 4: 1 to 5 µM

* * *

# Tested on: SKBR3 (PI3Kα-Wild Type) cell line
# test-method-notes: HTRF phospho-AKT(S473) cell assay in SKBR3 cells
# Type: cell-based, human
# experimental-setup: Homo sapiens, SK-BR-3; SKBR3 (PI3Kα-Wild Type) cells, HTRF phospho-AKT(S473), 2 hours compound incubation, PDGF-BB stimulated
I'd appreciate it if you could supply IC50 values for the items below.

Items follow; give IC50 for each.
1. Cc1cc([C@@H](C)Nc2ccc(Cl)nc2C(=O)NS(C)(=O)=O)c2nc(N3CCC(n4nc(C#N)c5ccccc54)CC3)n(C)c(=O)c2c1 [Compound 304]
2. Cc1cc([C@@H](C)Nc2ccc(Cl)nc2C(=O)NS(C)(=O)=O)c2nc(N(C)CC3(C(F)(F)F)CC3)n(C)c(=O)c2c1 [Compound 163]
3. Cc1cc([C@@H](C)Nc2ccc(Cl)nc2C(=O)NS(C)(=O)=O)c2nc(N3C[C@@H]4[C@H](C3)[C@H]4c3c(F)cnn3C)n(C)c(=O)c2c1 [Compound 424]

# output
1. ≥ 5 µM
2. 1 to 5 µM
3. ≥ 5 µM

Items follow; give IC50 for each.
1. CC(=O)NS(=O)(=O)c1nc(Cl)ccc1N[C@H](C)c1cc(F)cc2c(=O)n(C)c(N3CCC(F)(F)CC3)nc12 [Compound 77]
2. Cc1cc([C@@H](C)Nc2ccc[nH]c2=O)c2nc(N3Cc4ccc(F)cc4C3)n(C)c(=O)c2c1 [Compound 94]
3. Cc1cc([C@@H](C)Nc2ccc(Cl)nc2C(=O)NS(C)(=O)=O)c2nc(OCc3ccccc3)n(C)c(=O)c2c1 [Compound 50]
4. Cc1cc([C@@H](C)Nc2ccc(Cl)nc2C(=O)NS(C)(=O)=O)c2nc(N3CCO[C@H](c4cnn(C)c4)C3)n(C)c(=O)c2c1 (relative stereo) [Compound 313]
5. C[C@@H](Nc1ccc(Cl)nc1C(=O)NS(C)(=O)=O)c1cc(F)cc2c(=O)n(C)c(N3Cc4cn(C)nc4C3)nc12 [Compound 37]
6. Cc1cc([C@@H](C)Nc2ccc(Cl)nc2C(=O)NS(C)(=O)=O)c2nc(-c3ccc(O[C@H]4CCN(C)CC4(F)F)nc3)n(C)c(=O)c2c1 [Compound 281]

# output
["≥ 5 µM", "≥ 5 µM", "1 to 5 µM", "1 to 5 µM", "0.5 to 1 µM", "1 to 5 µM"]

Items follow; give IC50 for each.
1. Cc1cc([C@@H](C)Nc2ccc(Cl)nc2C(=O)NS(C)(=O)=O)c2nc(N3CC[C@@H](Oc4ccnn4C)C3)n(C)c(=O)c2c1 [Compound 352]
2. Cc1cc([C@@H](C)Nc2ccc(Cl)nc2C(=O)NS(C)(=O)=O)c2nc(-c3ccc(O[C@@H]4CCN(C)CC4(F)F)nc3)n(C)c(=O)c2c1 [Compound 244]

# output
1 to 5 µM
1 to 5 µM

Reading of IC50 for Cc1cc([C@@H](C)Nc2ccc(Cl)nc2C(=O)NS(C)(=O)=O)c2nc(N3C[C@@H]4[C@H](C3)[C@H]4c3nn(C)cc3F)n(C)c(=O)c2c1 [Compound 391] with SKBR3 (PI3Kα-Wild Type) cell line: 1 to 5 µM

* * *

I'd appreciate it if you could supply pIC50 values for the items below.
# Test system: SKBR3 (PI3Kα-Wild Type) cell line
# test-method-notes: HTRF phospho-AKT(S473) cell assay in SKBR3 cells
# Format: cell-based, human
# experimental-setup: Homo sapiens, SK-BR-3; SKBR3 (PI3Kα-Wild Type) cells, HTRF phospho-AKT(S473), 2 hours compound incubation, PDGF-BB stimulated
pIC50: −log10 of the molar value.

Field: example entries. Status: answers known.
>>> print(df.to_string())
                                smiles_repr  observable  recorded_value
0  Cc1cc([C@@H](C)Nc2ccc(Cl)nc2C(=O)NS(C)(=O)=O)c2nc(N3CCC(c4ncc(C#N)cc4C)CC3)n(C)c(=O)c2c1       pIC50    5.30 to 6.00
1  Cc1cc([C@@H](C)Nc2ccc(Cl)nc2C(=O)NS(C)(=O)=O)c2nc(N3CCOC[C@H]3C)n(C)c(=O)c2c1       pIC50    5.30 to 6.00

Items follow; give pIC50 for each.
1. Cc1cc([C@@H](C)Nc2ccc(Cl)nc2C(=O)NS(C)(=O)=O)c2nc(-c3ccc(Nc4ccn(C)n4)nc3)n(C)c(=O)c2c1
2. Cc1cc([C@@H](C)Nc2ccc(Cl)nc2C(=O)NS(C)(=O)=O)c2nc(N3CCC4(CCOCC4)C3)n(C)c(=O)c2c1
3. CCS(=O)(=O)NC(=O)c1nc(Cl)ccc1N[C@H](C)c1cc(C)cc2c(=O)n(C)c(N3Cc4ccc(F)cc4C3)nc12
4. Cc1cc([C@@H](C)Nc2ccc(Cl)nc2C(=O)NS(C)(=O)=O)c2nc(NC(C)(C)C)n(C)c(=O)c2c1

# output
5.30 to 6.00
5.30 to 6.00
5.30 to 6.00
≤ 5.30

The values you see were collected from patent US12281122B1.
